Where these numbers come from: PubChem BioAssay AID248

T/C by entry:
# Test system: L1210 leukemia ip in BDF1 mice, survival T/C
# assay: NCI In Vivo Anticancer Drug Screen. Data for tumor model L1210 Leukemia (intraperitoneal) in B6D2F1 (BDF1) mice
# test.conditions: endpoint: mean survival time; dose: 25.0 mg/kg/injection; schedule: Q04DX003 (ip); vehicle: Klucel (hydroxypropylcellulose) (HPC); higher = longer survival
Toxic doses and inconclusive results are not listed.

q: # T/C lookup, item `[N-]=C(CC(=O)c1ccccc1)c1ccccc1.[N-]=C(CC(=O)c1ccccc1)c1ccccc1.[Ni+2]`
a: 93 % of control

q: # repeat for `N#CC(C#N)=Cc1ccc(C=C(C#N)C#N)cc1`
a: 98 % of control

q: Try CC(=O)C1=CC(=O)NC(=O)C1C(=O)CC(C)C (stereo not drawn) next.
a: 96 % of control

q: Please answer likewise for `O=C(NC1CCCCC1)Sc1ccc(Cl)cc1`
a: 94 % of control

The record that follows has no T/C shown yet.
q: GET /values?readout=T/C&item= CN1CCC(=C2c3ccccc3C(O)c3ccccc32)CC1 (stereo not drawn)
a: 98 % of control
